B1: Caulobacter ParB omega fusion; a variant is named by its letters at X, in order, B8GW30 (parent)
chain: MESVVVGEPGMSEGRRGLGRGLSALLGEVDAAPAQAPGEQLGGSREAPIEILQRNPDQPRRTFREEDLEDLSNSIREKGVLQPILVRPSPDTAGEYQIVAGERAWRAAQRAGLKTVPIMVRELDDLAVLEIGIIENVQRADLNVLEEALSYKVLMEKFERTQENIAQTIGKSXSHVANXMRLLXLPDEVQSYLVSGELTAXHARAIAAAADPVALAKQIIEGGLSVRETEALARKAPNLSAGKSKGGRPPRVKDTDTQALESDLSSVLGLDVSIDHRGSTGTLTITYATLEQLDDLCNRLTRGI

- Variants of: B1
- method.description: one-hybrid fitness for binding parS DNA (scaled: cognate 1, non-cognate 0); higher = stronger binding
- condition.info: with parS DNA site
In all, about 81,000 sequences were measured (“one-hybrid fitness for binding parS DNA”: median about -0.17, highest 2% from about 0.51 on). The sample as a whole holds a higher share of the highest values than the screen did.
one-hybrid fitness for binding parS DNA for assorted variants
property: one-hybrid fitness for binding parS DNA

    variant_notation  observed_value
 0              RTHF           0.277
 1              RIIT           0.715
 2              RKRA           0.774
 3              LVRT           ≤ 0.2
 4              RKGA           0.694
 5              RQND           0.221
 6              RRGC           0.593
 7              QQAP           ≤ 0.2
 8              AQTD           ≤ 0.2
 9              QWVG           ≤ 0.2
10              RIDN           0.388
11              SYNF           ≤ 0.2
12              IIGK           ≤ 0.2
13              RINR           ≤ 0.2
14              RIDP           ≤ 0.2
15              RQLQ           ≤ 0.2
16              AFVR           ≤ 0.2
17              SRPQ           ≤ 0.2
18              NLNR           ≤ 0.2
19              YINM           ≤ 0.2
20              PYVA           ≤ 0.2
21              RAAC            0.98
22              RQDC           0.863
23              RLGK           ≤ 0.2
24              RTNM           0.301
25              RQWA           0.544
26              RNEL           ≤ 0.2
27              RNVQ           ≤ 0.2
28              VEST           ≤ 0.2
29              RWAH           ≤ 0.2
30              PERA           ≤ 0.2
31              TQVG           ≤ 0.2
32              RNVG           0.619
33              YIMG           ≤ 0.2
34              PPNS           ≤ 0.2
35              YFQT           ≤ 0.2
36              NQMA           ≤ 0.2
37              RTRR           ≤ 0.2
38              RWAP           ≤ 0.2
39              RHGK           ≤ 0.2
40              RQYF           0.256
41              RHMR           ≤ 0.2
42              RIPT           0.549
43              RAGF           0.247
44              RQRY           0.504
45              QMFV           ≤ 0.2
46              RPPT           ≤ 0.2
47              YTMT           ≤ 0.2
48              CAPL           ≤ 0.2
49              RQNN           0.435
50              RWFM           ≤ 0.2
51              RIPN           ≤ 0.2
52              TGNL           ≤ 0.2
53              LGRI           ≤ 0.2
54              RIAT           0.885
55              RIAQ           ≤ 0.2
56              RQCK           ≤ 0.2
57              RLGC            0.97
58              RTGK           ≤ 0.2
59              RAAR           ≤ 0.2
60              NIYW           ≤ 0.2
61              YYRR           ≤ 0.2
62              RIAM           0.367
63              RQCC           0.874
64              REPT           ≤ 0.2
65              RQRF           0.247
66              RSVA           0.515
67              RQCQ           ≤ 0.2
68              LVPK           ≤ 0.2
69              NSRE           ≤ 0.2
70              RYQR           ≤ 0.2
71              QKKR           ≤ 0.2
72              RCPT           0.604
73              LTWC           ≤ 0.2
74              RGVA           ≤ 0.2
75              YCLV           ≤ 0.2
76              RIFF           0.297
77              KQFG           ≤ 0.2
78              RHGY           0.429
79              RNKK           ≤ 0.2
80              AYDG           ≤ 0.2
81              RRGQ           ≤ 0.2
82              RAMP           ≤ 0.2
83              RQYR           ≤ 0.2
84              RRGR           ≤ 0.2
85              NKPL           ≤ 0.2
86              RQNC           0.947
87              RMMF           0.247
88              TFEV           ≤ 0.2
89              RHGC           0.896
90              RAFC           0.925

Where do the numbers come from? From a collection of fitness landscapes (doi:10.1016/j.celrep.2020.107928).
